System: A549 cells (human lung carcinoma)
Procedure Details: MTT cytotoxicity assay, A549
Format: cell-based
Run Conditions: 48 h incubation
Observable: IC50

[[record]]
molecule = "N.N.[Cl][Pt][Cl] [cis-Pt, cisplatin, reference compound]"
system_name = "A549 cells (human lung carcinoma)"
observable = "IC50"
reported = "10.5 µM"

[[record]]
molecule = "Cc1ccnc(-c2cc(CNC(=O)CCCCC3CCSS3)ccn2)c1 (stereo not drawn)"
system_name = "A549 cells (human lung carcinoma)"
observable = "IC50"
reported = "> 200 µM"


Problem: Fill in the blank: the reported IC50 of Cc1ccnc(-c2cc(CN)ccn2)c1.F[P-](F)(F)(F)(F)F.[Ir+3].[c-]1ccccc1-c1ccccn1.[c-]1ccccc1-c1ccccn1 [Ir-NH2, [Ir(C^∧N)2(N^∧N-NH2)]PF6] is ____.
Solution: 11.2 µM

Reference source: paper PMC9049077
